Experiment: In vivo tissue distribution of radioactivity after intravenous administration
Set-up: species or system Sprague Dawley rats
Settings: kidney, iv; rat, i.v., 2 min; read-out: Kidney, Mean % Injected Dose/Gram
measurement type: tissue uptake at 2 min (%ID/g)
Report as a plain number; the unit %ID/g is understood.

Form field: reported tissue uptake at 2 min of CC(C[18F])OC(=O)[C@H]1[C@@H](c2ccc(I)cc2)C[C@@H]2CC[C@H]1N2C (stereo partly shown) [[^18 F] FIPIT 8] 2.61

---

Assay: In vivo tissue distribution of radioactivity after intravenous administration
Set-up: species or system Sprague Dawley rats
Conditions: spleen, iv; rat, i.v., 30 min; read-out: Spleen, Mean % Injected Dose/Gram
measurement type: tissue uptake at 0.5 h (%ID/g)
Reply numerically in %ID/g, unit not repeated.

Recorded tissue uptake at 0.5 h of CC(C[18F])OC(=O)[C@H]1[C@@H](c2ccc(I)cc2)C[C@@H]2CC[C@H]1N2C (stereo partly shown) [[^18 F] FIPIT 8] , please. 0.64

---

Biological target: dopamine transporter (Rattus norvegicus, UniProt P23977)
Sequence (P23977 whole entry): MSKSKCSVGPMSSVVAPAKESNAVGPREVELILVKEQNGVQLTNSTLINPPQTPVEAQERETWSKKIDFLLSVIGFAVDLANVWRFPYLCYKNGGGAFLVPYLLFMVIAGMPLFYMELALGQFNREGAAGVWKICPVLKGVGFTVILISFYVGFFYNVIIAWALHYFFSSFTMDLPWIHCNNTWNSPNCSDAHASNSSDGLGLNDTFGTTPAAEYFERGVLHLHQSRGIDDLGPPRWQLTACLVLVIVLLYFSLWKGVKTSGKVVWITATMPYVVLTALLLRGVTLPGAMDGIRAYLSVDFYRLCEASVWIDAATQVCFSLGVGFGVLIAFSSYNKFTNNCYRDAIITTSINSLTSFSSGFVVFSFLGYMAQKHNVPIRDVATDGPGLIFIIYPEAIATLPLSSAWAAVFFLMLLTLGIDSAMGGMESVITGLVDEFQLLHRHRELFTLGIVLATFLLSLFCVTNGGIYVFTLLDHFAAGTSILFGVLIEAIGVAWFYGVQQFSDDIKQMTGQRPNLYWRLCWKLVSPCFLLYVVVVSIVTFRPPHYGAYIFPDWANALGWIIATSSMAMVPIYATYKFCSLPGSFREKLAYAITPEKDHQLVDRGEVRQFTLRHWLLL
measurement type: Ki (nM)
Please give a number only; it is taken to be in nM.

Record CC(CF)OC(=O)[C@H]1[C@@H](c2ccc(I)cc2)C[C@@H]2CC[C@H]1N2C (stereo partly shown) : what is its Ki with dopamine transporter (Rattus norvegicus, UniProt P23977)? 1.13

---

Test: In vivo tissue distribution of radioactivity after intravenous administration
Design: species or system Sprague Dawley rats
Settings: muscle, iv; rat, i.v., 2 min; read-out: Muscle, Mean % Injected Dose/Gram
Procedure: In vivo distribution of a compound of the invention, [^18 F]-2β-carbo-2'-fluoroisopropoxy-3β-(4-iodophenyl)tropane (FIPIT) 8 (X=4-iodophenyl; Y=1'fluoro-isopropoxy) was measured, as well as brain PET imaging to determine suitability of the compound as a label. […] These studies provided a calculated binding constant for FIPIT 8 with dopamine transporter of 1.13 nM. […] Region of interest measurements determined striatal to cerebellum ratios to be 3.0 at 190 min post administration. […]
measurement type: tissue uptake at 2 min (%ID/g)
Hi! Could you send only the number? It should be in %ID/g, unit omitted.

Query (compound): CC(C[18F])OC(=O)[C@H]1[C@@H](c2ccc(I)cc2)C[C@@H]2CC[C@H]1N2C (stereo partly shown) [[^18 F] FIPIT 8] ; field requested: tissue uptake at 2 min 0.12

---

Test: In vivo tissue distribution of radioactivity after intravenous administration
Design: species or system Sprague Dawley rats
Conditions: cerebellum, iv; rat, i.v., 30 min; read-out: Cerebell (C), Mean % Injected Dose/Gram
measurement type: tissue uptake at 0.5 h (%ID/g)
Form entry: value (%ID/g) — number only.

Looking for the measured tissue uptake at 0.5 h of CC(C[18F])OC(=O)[C@H]1[C@@H](c2ccc(I)cc2)C[C@@H]2CC[C@H]1N2C (stereo partly shown) [[^18 F] FIPIT 8] , can you help? 0.3

---

Assay: In vivo tissue distribution of radioactivity after intravenous administration
Parameters: species or system Sprague Dawley rats
Conditions: striatum, iv; rat, i.v., 30 min; read-out: Striatum (St), Mean % Injected Dose/Gram
measurement type: tissue uptake at 0.5 h (%ID/g)
Express your answer in %ID/g, writing the number without its unit.

Recorded tissue uptake at 0.5 h for CC(C[18F])OC(=O)[C@H]1[C@@H](c2ccc(I)cc2)C[C@@H]2CC[C@H]1N2C (stereo partly shown) [[^18 F] FIPIT 8] , please? 0.73
